meta.source: patent US10450292B2

Examples of compounds with documented MIC follow.
- Test system: Escherichia coli D21f2tolC
- test-summary: microbe, parasite or virus in culture
- condition-notes: 16 h, read-out: MIC E. coli D21f2tolC, Mueller-Hinton II agar, 16 h at 37° C.

[
  {
    "compound": "Cc1cc(Oc2ccccc2)ccc1CCC(=O)c1c(O)cc(O)cc1O [Example 33]",
    "measurement-target": "Escherichia coli D21f2tolC",
    "MIC, µg/mL": 1.6
  },
  {
    "compound": "O=C(c1c(O)cc(O)cc1O)C1CC1c1ccc(Oc2ccc(Cl)cc2Cl)cc1 (centres unmarked) [Example 29]",
    "measurement-target": "Escherichia coli D21f2tolC",
    "MIC, µg/mL": 1.5
  },
  {
    "compound": "O=C(C=Cc1ccc(Oc2ccc(Cl)cc2)cc1)c1c(O)cc(O)cc1O (mixture of isomers) [Example 5]",
    "measurement-target": "Escherichia coli D21f2tolC",
    "MIC, µg/mL": 1.6
  },
  {
    "compound": "Cc1ccc(C2CC2C(=O)c2c(O)cc(O)cc2O)c(C)c1 (centres unmarked) [Example 20]",
    "measurement-target": "Escherichia coli D21f2tolC",
    "MIC, µg/mL": 1.7
  },
  {
    "compound": "O=C(CCc1ccc(Oc2ccc(C(F)(F)F)cc2)cc1)c1c(O)cc(O)cc1O [Example 35]",
    "measurement-target": "Escherichia coli D21f2tolC",
    "MIC, µg/mL": 1.3
  },
  {
    "compound": "O=C(/C=C/c1ccc(C(F)(F)F)cc1)c1c(O)cc(O)cc1O [Example 14]",
    "measurement-target": "Escherichia coli D21f2tolC",
    "MIC, µg/mL": 20
  },
  {
    "compound": "CCCC1=C(O)C(CCC)(CCC)C(=O)C(C(=O)CCc2ccc(Oc3ccc(F)cc3)cc2C(F)(F)F)=C1O [Example 68]",
    "measurement-target": "Escherichia coli D21f2tolC",
    "MIC, µg/mL": 1.5
  },
  {
    "compound": "CCC1=C(O)C(CC)(CC)C(=O)C(C(=O)C2CC2c2ccc(Cl)cc2C)=C1O (centres unmarked) [Example 82]",
    "measurement-target": "Escherichia coli D21f2tolC",
    "MIC, µg/mL": 1.2
  },
  {
    "compound": "CCCC1=C(O)C(CCC)(CCC)C(=O)C(C(=O)C2CC2c2ccc(Oc3ccccc3)cc2)=C1O (centres unmarked) [Example 59]",
    "measurement-target": "Escherichia coli D21f2tolC",
    "MIC, µg/mL": 1.1
  },
  {
    "compound": "O=C(c1c(O)cc(O)c(Cl)c1O)C1CC1c1ccc(Oc2ccc(F)cc2)cc1 (centres unmarked) [Example 46]",
    "measurement-target": "Escherichia coli D21f2tolC",
    "MIC, µg/mL": 6.6
  },
  {
    "compound": "O=C(c1c(O)cc(O)cc1O)C1CC1c1ccc(Cl)cc1C(F)(F)F (centres unmarked) [Example 47]",
    "measurement-target": "Escherichia coli D21f2tolC",
    "MIC, µg/mL": 4.8
  },
  {
    "compound": "CC1=C(O)C(C)(C)C(=O)C(C(=O)C2CC2c2ccc(Oc3ccc(F)cc3)cc2C)=C1O (centres unmarked) [Example 75]",
    "measurement-target": "Escherichia coli D21f2tolC",
    "MIC, µg/mL": 5.1
  },
  {
    "compound": "O=C(c1c(O)cc(O)c(Cl)c1O)C1CC1c1ccc(Oc2ccc(F)cc2)cc1C(F)(F)F (centres unmarked) [Example 51]",
    "measurement-target": "Escherichia coli D21f2tolC",
    "MIC, µg/mL": 16
  },
  {
    "compound": "Cc1cc(Oc2ccc(F)cc2)ccc1C1CC1C(=O)c1c(O)cc(O)c(Cl)c1O (centres unmarked) [Example 52]",
    "measurement-target": "Escherichia coli D21f2tolC",
    "MIC, µg/mL": 7.5
  },
  {
    "compound": "CCCC1(CCC)C(=O)C(C(=O)CCc2ccc(Oc3ccc(F)cc3)cc2)=C(O)C=C1O [Example 63]",
    "measurement-target": "Escherichia coli D21f2tolC",
    "MIC, µg/mL": 2.4
  },
  {
    "compound": "CCC1=C(O)C(CC)(CC)C(=O)C(C(=O)C2CC2c2ccc(Oc3ccc(F)cc3)cc2)=C1O (centres unmarked) [Example 62]",
    "measurement-target": "Escherichia coli D21f2tolC",
    "MIC, µg/mL": 0.28
  },
  {
    "compound": "O=C(c1c(O)cc(O)cc1O)C1CC1c1ccc(Oc2ccc(Cl)cc2)cc1C(F)(F)F (centres unmarked) [Example 25]",
    "measurement-target": "Escherichia coli D21f2tolC",
    "MIC, µg/mL": 1.5
  }
]
